Biological target: T1, 人IL-18Rβ蛋白 (IL-18Rβ antigen) (human)
T1 chain: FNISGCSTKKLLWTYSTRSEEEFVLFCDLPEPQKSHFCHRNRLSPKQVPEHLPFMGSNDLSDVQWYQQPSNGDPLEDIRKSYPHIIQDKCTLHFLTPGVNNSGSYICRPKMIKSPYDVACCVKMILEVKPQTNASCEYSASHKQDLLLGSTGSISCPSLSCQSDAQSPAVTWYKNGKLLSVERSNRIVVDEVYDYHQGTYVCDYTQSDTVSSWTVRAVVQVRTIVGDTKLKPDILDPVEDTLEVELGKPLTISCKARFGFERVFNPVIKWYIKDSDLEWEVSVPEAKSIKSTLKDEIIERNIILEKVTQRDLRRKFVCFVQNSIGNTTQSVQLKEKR
Assay: SPR (Biacore 8K), secreted Fab captured on SASA sensor, antigen injected, 1:1 fit
Property: kon (M⁻¹ s⁻¹)
Give just the number in M⁻¹ s⁻¹; leave the unit off.

Binder	Endpoint result
A040 Fab clone (Fab, V domains shown) VH: EVQLVESGGGLVQPGGSLRLSCAASGLNLYYSSMHWVRQAPGKGLEWVASIYSSNGRTYYADSVKGRFTISADTSKNTAYLQMNSLRAEDTAVYYCARSSFSHGYGWYGLDYWGQGTLVTVSS VL: DIQMTQSPSSLSASVGDRVTITCRASQSVSSAVEWYQQKPGKAPKLLIYSASSLYSGVPSRFSGSRSGTDFTLTISSLQPEDFATYYCQQYGYHDAGLITFGQGTKVEIK	77000
A035 Fab clone (Fab, V domains shown, Mutations against C056-WT: VL-S31F/VL-A34E/VH-F27I/VH-S99A) VH: EVQLVESGGGLVQPGGSLRLSCAASGINLYYSSMHWVRQAPGKGLEWVASIYSSNGRTYYADSVKGRFTISADTSKNTAYLQMNSLRAEDTAVYYCARASFSHGYGWYGLDYWGQGTLVTVSS VL: DIQMTQSPSSLSASVGDRVTITCRASQSVSFAVEWYQQKPGKAPKLLIYSASSLYSGVPSRFSGSRSGTDFTLTISSLQPEDFATYYCQQYGYHDAGLITFGQGTKVEIK	143000

Shift focus to the following entry.
A039 Fab clone (Fab, V domains shown, Mutations against C056-WT: VL-A34D/VH-F27I) VH: EVQLVESGGGLVQPGGSLRLSCAASGINLYYSSMHWVRQAPGKGLEWVASIYSSNGRTYYADSVKGRFTISADTSKNTAYLQMNSLRAEDTAVYYCARSSFSHGYGWYGLDYWGQGTLVTVSS VL: DIQMTQSPSSLSASVGDRVTITCRASQSVSSAVDWYQQKPGKAPKLLIYSASSLYSGVPSRFSGSRSGTDFTLTISSLQPEDFATYYCQQYGYHDAGLITFGQGTKVEIK has a reported kon of 115000
